Each entry below lists one item and its recorded growth inhibition value.
- measurementDescription: NCI Yeast Anticancer Drug Screen. Data for the cln2 rad14 strain (AID 165);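 note: 0% = growth equal to vehicle treated cultures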
- testSettings: S. cerevisiae cln2 rad14 strain, at 50.0 µM, stronger effect = higher value
This is part of a sample that, as a whole, favours compounds with a hit. Of some 79,000 tested, about 15% had one in any assay.
Record the value in %, omitting the unit from your answer.

The cases that follow already have their growth inhibition on record.
>  <compound>
N#Cc1c(N)nc2c(c(-c3ccc(Cl)cc3)nn2-c2ccccc2)c1C#N

>  <growth inhibition / %>
11.1

$$$$
>  <compound>
CCOC(=O)[n+]1c(C)ccc2ccccc21

>  <growth inhibition / %>
-23.8

$$$$

The compound listed as COc1ccc(C=Nc2ccc(C(=O)O)cc2)cc1 has a reported growth inhibition of -2.25

The compound listed as NC(=O)N1CCCCN1C(N)=O has a reported growth inhibition of -55

---

Each entry below lists one item and its recorded growth inhibition value.
- measurementDescription: NCI Yeast Anticancer Drug Screen. Data for the sgs1 mgt1 strain (AID 161);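 note: 0% = growth of cultures given vehicle only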
- testSettings: S. cerevisiae sgs1 mgt1 strain, at 50.0 µM, stronger effect = higher value
About 79,000 compounds went through this panel and 15% of them were active in at least one assay; those are over-represented in the sample as a whole.
Record the value in %, omitting the unit from your answer.

The cases that follow already have their growth inhibition on record.
>  <molecule>
CC(=O)c1cccc(OC(=O)c2ccccc2)c1

>  <growth inhibition / %>
35

$$$$
>  <molecule>
O=C(Nc1ccc(Cl)c([N+](=O)[O-])c1)Oc1ccc2ccccc2c1

>  <growth inhibition / %>
8.15

$$$$
>  <molecule>
C[N+](C)(C)CCOC(=O)C(c1ccccc1)C1(O)CCCC1 (stereo not given)

>  <growth inhibition / %>
12.7

$$$$
>  <molecule>
CSc1ccc(NC(=O)Nc2cccc(C(C)=O)c2)cc1

>  <growth inhibition / %>
10.3

$$$$
>  <molecule>
Cc1c(C)c(C)c(CCl)c(CCl)c1C

>  <growth inhibition / %>
31.9

$$$$

The molecule listed as C=C1CC(C)(Cn2cnc3c(N)ncnc32)OC1=O (stereo not given) has a reported growth inhibition of 9.05

The molecule listed as ClC1CC2CCC1C2 (stereo not given) has a reported growth inhibition of 8.45

The molecule listed as Clc1cc(OC2C3CC4CC(C3)CC2C4)nc(Cl)n1 (stereo not given) has a reported growth inhibition of 27.7

The molecule listed as NC(=O)Cc1nc(O)cc(=O)[nH]1 has a reported growth inhibition of -8.3

The molecule listed as O=C(Cc1n[nH]c(=S)nc1CC(=O)c1ccccc1)c1ccccc1 has a reported growth inhibition of 5.2

The molecule listed as CC=C1C(C(=O)O)C1C(=O)O (stereo not given) has a reported growth inhibition of -5.2

---

Each entry below lists one item and its recorded growth inhibition value.
- measurementDescription: NCI Yeast Anticancer Drug Screen. Data for the bub3 strain (AID 167)
- testSettings: S. cerevisiae bub3 mutant strain, at 50.0 µM, stronger effect = higher value
This is part of a sample that, as a whole, favours compounds with a hit. Of some 79,000 tested, about 15% had one in any assay.
Record the value in %, omitting the unit from your answer.

The cases that follow already have their growth inhibition on record.
>  <molecule>
CCn1c(=O)c(C#N)c2n(CC)c3cc(C)c(C)cc3n2c1=O

>  <recordedValue>
-31.3

$$$$
>  <molecule>
CCOC(=O)Nc1ccc([N+](=O)[O-])cc1[N+](=O)[O-]

>  <recordedValue>
8.6

$$$$
>  <molecule>
Brc1cccc(C2ON=C(c3ccccc3)N2C23CC4CC(CC(C4)C2)C3)c1 (stereo not drawn)

>  <recordedValue>
-7.55

$$$$
>  <molecule>
O=C(O)c1cc(Nc2nc(Cl)nc(Cl)n2)ccc1-c1c2ccc(=O)cc-2oc2cc(O)ccc12

>  <recordedValue>
-1.15

$$$$

The molecule listed as O=NN(CCCl)C(=O)NC1CCC(CC(=O)O)CC1 (stereo not drawn) has a reported growth inhibition of 2.9

The molecule listed as COC(=O)c1ccccc1N=NNc1ccc(C(F)(F)F)c([N+](=O)[O-])c1 has a reported growth inhibition of 9.95

The molecule listed as c1ccc([P+](CC[P+](c2ccccc2)(c2ccccc2)c2ccccc2)(c2ccccc2)c2ccccc2)cc1 has a reported growth inhibition of -12.4

The molecule listed as COc1cc(Cc2cc(OC)c(OC)c(OC)c2)ccc1O has a reported growth inhibition of 19.1
